- Tested on: HOP-62 NSCLC
- PROTOCOL TEXT: NCI-60 one-dose screen, 48 h
- ASSAY CONTEXT: 10 µM unless noted
About 83,000 compounds went through this panel and 20% of them were active in at least one assay; those are over-represented in the sample as a whole. The source made the active and inactive calls. How the source made its calls: active means growth percent below 10; inactive means the rest.
Mark one answer only. Choices: active, inactive

# MOLECULE, MEASUREMENT TARGET, CLASS ASSIGNMENT
records = [
    ("CC(=O)c1ccc(NC(=O)CSc2nnc(-c3cc(-c4ccc(C)cc4)nc4ccccc34)o2)cc1", "HOP-62 NSCLC", "inactive"),
    ("c1ccc(-c2n(Cc3ccc4ccccc4n3)cc[n+]2Cc2ccc3ccccc3n2)cc1", "HOP-62 NSCLC", "inactive"),
    ("COC1=CC=CC2(OC)C3(O)CCCc4cccc(c43)N3C(=O)COC132 (stereo not given)", "HOP-62 NSCLC", "inactive"),
]

Problem: So what was the verdict on C#C[C@@]1(O)[C@@H](CO)O[C@@H](n2cc(Br)c3c(N)ncnc32)[C@@H]1O in this test?
Solution: active

Problem: So what was the verdict on O=C(CCCC(=O)Nc1ccc(-n2nnc3cc(Cl)c(Cl)cc32)cc1)Nc1ccc(-n2nnc3cc(Cl)c(Cl)cc32)cc1 in this test?
Solution: inactive

Problem: So what was the verdict on CCOC(=O)CC[C@H](NC(=O)c1ccc(NC)c2ccccc12)C(=O)OCC in this test?
Solution: inactive

Problem: So what was the verdict on O=C(Nc1nccs1)c1noc2ccccc12 in this test?
Solution: inactive

Problem: So what was the verdict on S=c1ssnc1-c1cc2ccccc2o1 in this test?
Solution: inactive

Problem: So what was the verdict on Nc1c(C(=O)Nc2cccc3ccccc23)sc2nc3c(cc12)CCCCCC3 in this test?
Solution: inactive

Problem: So what was the verdict on O=CN1N=C(c2ccc3c(c2)OCO3)CC1c1cccc(Nc2ccnc3cc(C(F)(F)F)ccc23)c1 (stereo not given) in this test?
Solution: inactive

Problem: So what was the verdict on N#Cc1ccc(N2Cc3cc(Cl)ccc3OC3=C2C(=O)N(Cc2ccccc2)C3=O)cc1 in this test?
Solution: inactive

* * *

- System: T-47D breast
- PROTOCOL TEXT: NCI-60 one-dose screen, 48 h (100 = growth as untreated, 0 = no growth, -100 = all killed)
- ASSAY CONTEXT: 10 µM unless noted
Compounds without any hit were thinned out: in the full panel of roughly 83,000, 20% have a hit.
ASSAY ENDPOINT: growth (%)
Value expressed in %; do not type the unit.

Reference set, count: 10
# COMPOUND, ASSAY ENDPOINT, ASSAY VALUE
data = [
    ("CCN(CC)c1ccc2c(c1)Oc1nc(N)c(C#N)c(N)c1C2Sc1ccc(OC)cc1 (centres undefined)", "growth", 51.8),
    ("NS(=O)(=O)c1ccc(-n2ncc(NC(=O)Nc3ccc(S(=O)(=O)Nc4nccs4)cc3)c2-c2ccccc2)cc1", "growth", 94.2),
    ("NC[C@@H]1CCN(c2cc3c(cc2F)c(=O)n(N)c(=O)n3Cc2ccc(-c3ccccc3)cc2)C1", "growth", 89),
    ("C1=CC2=CC=C3C=CC=C4C(c5nc6c7ccccc7c7ccccc7c6[nH]5)=CC(=C1)C2C34 (centres undefined)", "growth", 60),
    ("Cc1nccc2c3ccc(OCc4cn(-c5ccccc5)nn4)cc3n(CCCc3ccccc3)c12", "growth", 78.4),
    ("Cc1ccc(C(=O)/C(=C/c2ccc([N+](=O)[O-])cc2)S(=O)Cc2ccccc2)cc1 (centres undefined)", "growth", -38.3),
    ("COc1cc(N=Nc2cc(S(=O)(=O)O)cc3cc(S(=O)(=O)O)cc(O)c23)c(C)cc1N=Nc1c(S(=O)(=O)O)cc2cc(Nc3ccccc3)ccc2c1O", "growth", 93.4),
    ("COCCOC(=O)COc1ccc(OC)cc1", "growth", 120),
    ("[2H]c1cc2c(c([2H])c1F)/C(=C/c1[nH]c(C)c(C(=O)NCCN(CC)CC)c1C)C(=O)N2", "growth", 68.7),
    ("O=C1NN(c2ccccc2)C(c2ccc(Cl)cc2)N2CCC[C@H]12 (some centres undefined)", "growth", 100),
]

Looking up O=C(O)c1ccc(-n2cc(/C=N/Nc3ccc(Cl)cc3Cl)c(-c3ccccc3)n2)cc1 , I see its growth listed as 70.7

Looking up COc1cc(C2=NN(C(C)=O)C(c3cccc(Nc4ccnc5cc(C(F)(F)F)ccc45)c3)C2)cc(OC)c1OC (centres undefined) , I see its growth listed as 40.2

Looking up S=C(Nc1ccc(Cl)cc1)c1ccccn1 , I see its growth listed as 79.2

* * *

Catalogue of growth values
- Test system: BT-549 breast
- PROTOCOL TEXT: NCI-60 one-dose screen, 48 h (100 = growth as untreated, 0 = no growth, -100 = all killed)
- ASSAY CONTEXT: 10 µM unless noted
- Experimental: Growth inhibition of the BT-549 human tumor cell line is measured as a screen for anti-cancer activity. Cells are grown in 96 well plates and exposed to the test compound for 48 hours. Compounds are tested at a single concentration, which is 10^-5 M for most compounds. The reported endpoint is percent growth (GI% or GIPRCNT), where numbers from 0 - 100% represent growth inhibition, and numbers from -100% - 0 represent cell death. For example, a value of 40 represents 60% growth inhibition. […]
About 83,000 compounds went through this panel and 20% of them were active in at least one assay; those are over-represented in the sample as a whole.
Value expressed in %; do not type the unit.

Reference set, count: 2
# MOLECULE, MEASUREMENT TARGET, growth [%]
measured = [
    ("C=C1C(=O)O[C@H]2[C@H]1CC/C(COC(=O)/C=C/c1cccnc1)=C\\CC[C@@]1(C)O[C@@H]21", "BT-549 breast", 20.5),
    ("COc1ccc(NC(=O)Nc2ccc(Nc3nc(C)cc(Nc4ccc(C)cc4)n3)cc2)cc1", "BT-549 breast", 3.93),
]

Now look at this entry.
Looking up COc1cc2nc3c(=O)n(CCN(C)C)cnn3c(=O)c2cc1OC , I see its growth listed as 98.6

* * *

- Tested on: 786-0 renal
- PROTOCOL TEXT: NCI-60 one-dose screen, 48 h (100 = growth as untreated, 0 = no growth, -100 = all killed)
- ASSAY CONTEXT: 10 µM unless noted
Compounds without any hit were thinned out: in the full panel of roughly 83,000, 20% have a hit. The source made the active and inactive calls. How the source made its calls: active means growth percent below 10; inactive means the rest.
Catalogue of growth values

# COMPOUND, ASSAY ENDPOINT, ASSAY VALUE
data = [
    ("CCOCCc1c(O)nc(SC)[nH]c1=O", "growth", "103% (inactive)"),
    ("CCOC(=O)c1c(C(F)(F)F)n([O-])c2ccc(Cl)cc2[n+]1=O", "growth", "-73.8% (active)"),
    ("Nn1c(SCC(=O)Nc2ccc(Cl)cc2)nnc1-c1cc(F)c(Cl)cc1Cl", "growth", "93.4% (inactive)"),
    ("COc1ccc(Nc2nc(SCC(C)C)nc(-c3ccc(F)cc3)c2C#N)cc1", "growth", "60.8% (inactive)"),
]

Looking up COc1ccc(-c2cn(-c3ccc(Cl)cc3)c(=S)[nH]2)cc1OC , I see its growth listed as 1.85% (active)

Looking up O=C1CC23OC4ON=C(Br)C4C2C(O)c2ccccc2N13 (configuration not stated) , I see its growth listed as 101% (inactive)

Looking up CSc1cccc(NC(=O)Nc2nc3c(C)cccc3s2)c1 , I see its growth listed as 96.2% (inactive)

Looking up N#Cc1c(NC(=O)c2cccs2)[n+]([O-])c2cc(C(F)(F)F)ccc2[n+]1[O-] , I see its growth listed as 114% (inactive)

Looking up Cc1cccc2nc3c(n12)C(=O)C(=O)c1ccccc1-3 , I see its growth listed as 106% (inactive)

Looking up C=C1C(=O)O[C@H]2[C@H]1CC/C(COC(=O)c1cccnc1N)=C\CC[C@@]1(C)O[C@@H]21 , I see its growth listed as 9.12% (active)

Looking up Cc1nn(-c2ccc(-c3ccc(OC(F)(F)F)cc3)cc2)c2nc(-c3ccccc3)nc(N)c12 , I see its growth listed as 93.8% (inactive)

Looking up C=C1C(=O)O[C@H]2[C@H]1CC/C(COC(=O)CCCCCCCCC(=O)OC/C1=C/CC[C@@]3(C)O[C@H]3[C@H]3OC(=O)C(=C)[C@@H]3CC1)=C\CC[C@@]1(C)O[C@@H]21 , I see its growth listed as -29.1% (active)

Looking up O=c1[nH]c(-c2cccc(F)c2)cc2cc(F)ccc12 , I see its growth listed as 44.2% (inactive)

* * *

- Test system: HOP-92 NSCLC
- PROTOCOL TEXT: NCI-60 one-dose screen, 48 h (100 = growth as untreated, 0 = no growth, -100 = all killed)
- ASSAY CONTEXT: 10 µM unless noted
- Procedure: Growth inhibition of the HOP-92 human Non-Small Cell Lung tumor cell line is measured as a screen for anti-cancer activity. Cells are grown in 96 well plates and exposed to the test compound for 48 hours. Compounds are tested at a single concentration, which is 10^-5 M for most compounds. The reported endpoint is percent growth (GI% or GIPRCNT), where numbers from 0 - 100% represent growth inhibition, and numbers from -100% - 0 represent cell death. […]
The panel holds about 83,000 compounds, 20% with a hit somewhere; the sample as a whole holds those more often.
Output: class label from growth. Mapping: 0 = under 30%, 1 = from 30% up to 80%, 2 = 80% and over

# COMPOUND, CLASS ASSIGNMENT
measured = [
    ("Cc1nc2sc(C(=O)Nc3cccc(Cl)c3C)c(N)c2cc1C(C)O (stereo not given)", 1),
]

Problem: For Nc1c(C(=O)Nc2cccc3ccccc23)sc2nc3c(cc12)CCCCCC3 , which growth bin applies?
Solution: 1

Problem: For COc1cc(/C=C/CO)cc(OC)c1O[C@@H]1O[C@H](CO)[C@@H](O)[C@H](O)[C@H]1O , which growth bin applies?
Solution: 2

Problem: For O=C(CCc1nnc2sc(OCc3ccccc3)nn12)c1nc2ccc([N+](=O)[O-])cc2[nH]1 , which growth bin applies?
Solution: 2

Problem: For Nc1n[nH]c2cccc(C#Cc3cccc(NC(=O)c4cc(N5CCOCC5)cc(C(F)(F)F)c4)c3)c12 , which growth bin applies?
Solution: 1

Problem: For COc1cc(/C=C/C(=O)/C=C/c2cc3ccc(Cl)cc3n(Cc3ccccc3)c2=O)ccc1O , which growth bin applies?
Solution: 0

Problem: For c1ccc2nc(N3CCOCC3)c(N3CCCCC3)nc2c1 , which growth bin applies?
Solution: 2
